Origin of the recorded values: patent US20240254222A1

Target: T1, Human Semaphorin3A-Fc (R&D Systems), TPP-13211 (human)
T1 construct: R&D Systems 1250-S3; also called recombinant human Sema3A-Fc chimera
T1 sequence (chain, as listed by the source limits assumed): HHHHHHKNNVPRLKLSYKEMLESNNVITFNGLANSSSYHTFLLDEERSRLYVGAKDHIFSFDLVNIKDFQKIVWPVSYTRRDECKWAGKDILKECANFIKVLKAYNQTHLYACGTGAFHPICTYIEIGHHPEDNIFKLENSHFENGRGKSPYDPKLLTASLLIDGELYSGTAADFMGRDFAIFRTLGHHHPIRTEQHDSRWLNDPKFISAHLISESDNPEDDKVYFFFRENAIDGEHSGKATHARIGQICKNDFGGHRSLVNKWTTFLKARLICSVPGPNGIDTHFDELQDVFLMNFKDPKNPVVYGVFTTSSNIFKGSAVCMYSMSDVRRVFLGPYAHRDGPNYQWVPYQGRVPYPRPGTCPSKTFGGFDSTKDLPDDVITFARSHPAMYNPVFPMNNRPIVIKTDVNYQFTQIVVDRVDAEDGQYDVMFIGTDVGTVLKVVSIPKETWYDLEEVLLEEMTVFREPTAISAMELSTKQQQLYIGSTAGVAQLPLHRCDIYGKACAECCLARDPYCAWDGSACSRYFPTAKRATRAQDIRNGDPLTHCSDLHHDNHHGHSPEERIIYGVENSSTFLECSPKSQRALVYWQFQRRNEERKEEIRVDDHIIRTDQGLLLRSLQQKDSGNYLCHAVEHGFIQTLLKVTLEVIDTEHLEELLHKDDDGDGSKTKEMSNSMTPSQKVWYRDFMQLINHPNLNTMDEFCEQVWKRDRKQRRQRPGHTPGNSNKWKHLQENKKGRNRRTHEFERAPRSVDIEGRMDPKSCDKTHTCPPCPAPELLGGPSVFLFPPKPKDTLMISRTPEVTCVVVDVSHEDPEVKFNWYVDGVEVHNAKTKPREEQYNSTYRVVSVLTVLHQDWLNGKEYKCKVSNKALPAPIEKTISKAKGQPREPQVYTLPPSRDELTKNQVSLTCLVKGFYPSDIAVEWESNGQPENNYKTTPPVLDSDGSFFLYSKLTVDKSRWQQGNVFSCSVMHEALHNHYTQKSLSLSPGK
Assay: competition ELISA on coated TPP-13211, competitor biotinylated TPP-15374
Experimental Readout: VAL norm to TPP-9809 (1 to 1 ratio)
Please give the numeric answer without any surrounding text.

# example entries with known answers
# Binder, VAL norm to TPP-9809 (1 to 1 ratio)
records = [
    ("TPP-25248 (antibody, human IgG1, lambda, V domains shown) VH: EVQLLESGGGLVQPGGSLRLSCAASGFDFSSYEMNWVRQAPGKGLEWVSGISWNSGWIGYADSVKGRFTISRDNSKNTLYLQMNSLRAEDTAVYYCARSGYSSSWFDPDFDYWGQGTLVTVSS VL: QSVLTQPPSVSGAPGQRVTISCTGSSSNIGAGYDVHWYQQLPGTAPKLLIYGNSNRPSGVPDRFSGSKSGTSASLAITGLQAEDEADYYCQSYAGPNPYVVFGGGTKLTVLG", 0.36),
    ("TPP-25256 (antibody, human IgG1, lambda, V domains shown) VH: EVQLLESGGGLVQPGGSLRLSCAASGFTFDSYEMNWVRQAPGKGLEWVSGISWNSGWIDYADSVKGRFTISRDNSKNTLYLQMNSLRAEDTAVYYCARSGYSSSWFDPDFDYWGQGTLVTVSS VL: QSVLTQPPSVSGAPGQRVTISCTGSSSNIGAGYDVHWYQQLPGTAPKLLIYGNSNRPSGVPDRFSGSKSGTSASLAITGLQAEDEADYYCQSYAGPNPYVVFGGGTKLTVLG", 0.41),
    ("TPP-25224 (antibody, human IgG1, lambda, V domains shown) VH: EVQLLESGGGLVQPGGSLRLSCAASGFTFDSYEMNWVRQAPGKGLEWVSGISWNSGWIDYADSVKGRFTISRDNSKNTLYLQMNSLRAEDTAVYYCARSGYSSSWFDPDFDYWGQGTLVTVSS VL: QSVLTQPPSVSGAPGQRVTISCTGSSSNIGAGYDVHWYQQLPGTAPKLLIYGNSNRPSGVPDRFSGSKSGTSASLAITGLQAEDEADYYCQSYAGINPYVVFGGGTKLTVLG", 0.43),
]

INPUT: # VAL norm to TPP-9809 (1 to 1 ratio) lookup, item TPP-25064 (antibody, human IgG1, lambda, V domains shown) VH: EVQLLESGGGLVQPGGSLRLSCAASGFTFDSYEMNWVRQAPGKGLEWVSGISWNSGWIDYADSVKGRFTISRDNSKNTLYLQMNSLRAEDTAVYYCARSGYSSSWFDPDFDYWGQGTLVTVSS VL: QSVLTQPPSVSGAPGQRVTISCTGSSSDIGAGYDVHWYQQLPGTAPKLLIYGNSNRPSGVPDRFSGSKSGTSASLAITGLQAEDEADYYCSSYAGPNPYVVFGGGTKLTVLG
OUTPUT: 0.48

INPUT: # VAL norm to TPP-9809 (1 to 1 ratio) lookup, item TPP-25497 (antibody, human IgG1, lambda, V domains shown) VH: EVQLLESGGGLVQPGGSLRLSCAASGFDFDSYEMNWVRQAPGKGLEWVSGISWNSGWIDYADSVKGRFTISRDNSKNTLYLQMNSLRAEDTAVYYCARSGYSSSWFDPDFDYWGQGTLVTVSS VL: QSVLTQPPSVSGAPGQRVTISCTGSSSDIGAGYDVHWYQQLPGTAPKLLIYGNSNRPSGVPDRFSGSKSGTSASLAITGLQAEDEADYYCSSYEGINPYVVFGGGTKLTVLG
OUTPUT: 0.39

INPUT: # VAL norm to TPP-9809 (1 to 1 ratio) lookup, item TPP-25255 (antibody, human IgG1, lambda, V domains shown) VH: EVQLLESGGGLVQPGGSLRLSCAASGFDFSSYEMNWVRQAPGKGLEWVSGISWNSGWIDYADSVKGRFTISRDNSKNTLYLQMNSLRAEDTAVYYCARSGYSSSWFDPDFDYWGQGTLVTVSS VL: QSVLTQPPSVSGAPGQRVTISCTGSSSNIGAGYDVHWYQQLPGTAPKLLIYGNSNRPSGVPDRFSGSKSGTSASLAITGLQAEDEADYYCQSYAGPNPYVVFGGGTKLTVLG
OUTPUT: 0.37
